Tested on: AGS
experiment: CellTiter-Glo Reagent cancer cell line proliferation assay, AGS
Format: cell-based, human
condition: Homo sapiens, 24 h, KRAS(G12D) heterozygous
measured_endpoint: IC50

Before answering, review these 2 worked examples.
{"compound": "C#Cc1c(F)ccc2cc(O)cc(-c3ncc4c(N5CC6CCC(C5)N6C(=O)[C@H](C)C#N)nc(OCC5(CN6CCN(CC7CCN(c8ccc9c(c8)CN(C8CCC(=O)NC8=O)C9=O)CC7)CC6)CC5)nc4c3F)c12 (stereo partly shown)", "reported_result": "> 1 µM"}
{"compound": "C#Cc1c(F)ccc2cc(O)cc(-c3nc(OC)c4c(N5CC6CCC(C5)N6C(=O)CCC#N)nc(OCC5(CN6CCN(CC7CCN(c8ccc9c(N%10CCC(=O)NC%10=O)nn(C)c9c8)CC7)CC6)CC5)nc4c3F)c12", "reported_result": "< 0.1 µM"}

Fill in IC50 for each of the 2 compounds listed.
1. C#Cc1c(F)ccc2cc(O)cc(-c3ncc4c(N5CC6CCC(C5)N6CC#N)nc(OCC5(CN6CCN(CC7CCN(c8ccc9c(c8)CN(C8CCC(=O)NC8=O)C9=O)CC7)CC6)CC5)nc4c3F)c12 (stereo not shown)
2. C#Cc1c(F)ccc2cc(O)cc(-c3nc(OC)c4c(N5CC6CCC(C5)N6C(=O)CC(C)C#N)nc(OCC5(CN6CCN(C[C@H]7CCN(c8ccc9c(c8)CN(C8CCC(=O)NC8=O)C9=O)C[C@@H]7F)CC6)CC5)nc4c3F)c12 (stereo partly shown)

1. < 0.1 µM
2. < 0.1 µM
